// Measurement Value of ERP lookup, one value per entry
- System: atrial muscle of anesthetized thoracotomy dog
- assay.notes: Effective refractory period (ERP) in anesthetized thoracotomy dog
- Assay type: in vivo
- experimental.parameters: dose 1 mg/kg intravenously; BCL 500 msec; mean
State the value with its unit after it.

| molecule | endpoint.name | meas.value |
| --- | --- | --- |
| C#CCN(CC#C)C(=O)C[C@H]1CCCCN1Cc1ccc[nH]c1=O [Example 191] | Measurement Value of ERP | 195 ms |
| O=c1[nH]cccc1CN1CCC(CCc2cccc3c2OCO3)CC1 [Example 128] | Measurement Value of ERP | 280 ms |
| COc1ncccc1CCC1CCN(Cc2ccc[nH]c2=O)CC1 [Example 118] | Measurement Value of ERP | 220 ms |
| CS(=O)(=O)c1ccsc1CCC1CCN(Cc2ccc[nH]c2=O)CC1 [Example 135] | Measurement Value of ERP | 208.3 ms |
| O=c1[nH]cccc1CN1CCC(CCc2nccs2)CC1 [Example 109] | Measurement Value of ERP | 235 ms |

Okay, now this molecule:
If you can, please state the reported Measurement Value of ERP value of C#CCN(CC#C)C(=O)C[C@H]1CCCCN1Cc1cccn(CC(F)(F)F)c1=O [Example 194] .
210 ms

###

- Tested on: atrial muscle of anesthetized thoracotomy dog
- assay.notes: Effective refractory period (ERP) in anesthetized thoracotomy dog
- Type: in vivo
- experimental.parameters: dose 0.3 mg/kg intravenously; BCL 300 msec; mean
endpoint.name: Measurement Value of ERP (ms)
API: value field is a number in ms; no unit string.

| compound | unit.annotation | Measurement Value of ERP |
| --- | --- | --- |
| O=c1[nH]cccc1CN1CCC(CCc2nccs2)CC1 [Example 109] | ms | 155 |

Okay, now this compound:
If you can, please state the reported Measurement Value of ERP value of COc1ncccc1CCC1CCN(Cc2ccc[nH]c2=O)CC1 [Example 118] .
160

###

- System: atrial muscle of anesthetized thoracotomy dog
- assay.notes: Effective refractory period (ERP) in anesthetized thoracotomy dog
- Assay type: in vivo
- experimental.parameters: dose 0.1 mg/kg intravenously; BCL 500 msec; mean
- Protocol: (1) An anesthetized thoracotomy dog was used for the present experiment. […] (2) A program electrical stimulation equipment was connected with the electrode for electrical stimulation at the right atrium, the electrical stimulation was carried out at a stimulation periodical length of 500 mess, and a threshold for the electrical stimulation was measured. […] After 10 minutes of the administration start of the keeping dose, ERP was measured in the respective stimulation frequency. […]
endpoint.name: Measurement Value of ERP (ms)
API: value field is a number in ms; no unit string.

Check out these entries, answers already filled in.
| molecular.string | meas.value |
| --- | --- |
| CS(=O)(=O)c1ccsc1CCC1CCN(Cc2ccc[nH]c2=O)CC1 | 178.3 |
| O=c1[nH]cccc1CN1CCC(CCc2cccc3c2OCO3)CC1 | 185 |
| COc1ccccc1C(=O)CC1CCN(Cc2ccc[nH]c2=O)CC1 | 200 |

If you can, please state the reported Measurement Value of ERP value of O=c1[nH]cccc1CN1CCC(CCc2nccs2)CC1 .
185

Next up: C#CCN(CC#C)C(=O)C[C@H]1CCCCN1Cc1cccn(CC(F)(F)F)c1=O
165

###

- System: atrial muscle of anesthetized thoracotomy dog
- assay.notes: Effective refractory period (ERP) in anesthetized thoracotomy dog
- Assay type: in vivo
- experimental.parameters: dose 0.3 mg/kg intravenously; BCL 300 msec; mean
// Measurement Value of ERP lookup, one value per entry
API: value field is a number in ms; no unit string.

| compound | target.under.test | Measurement Value of ERP, ms |
| --- | --- | --- |
| C#CCN(CC#C)C(=O)C[C@H]1CCCCN1Cc1ccc[nH]c1=O [Example 191] | atrial muscle of anesthetized thoracotomy dog | 155 |
| COc1ccccc1C(=O)CC1CCN(Cc2ccc[nH]c2=O)CC1 [Example 144] | atrial muscle of anesthetized thoracotomy dog | 180 |
| C#CCN(CC#C)C(=O)C[C@H]1CCCCN1Cc1cccn(CC(F)(F)F)c1=O [Example 194] | atrial muscle of anesthetized thoracotomy dog | 145 |
| O=c1[nH]cccc1CN1CCC(CCc2cccc3c2OCO3)CC1 [Example 128] | atrial muscle of anesthetized thoracotomy dog | 180 |

Okay, now this compound:
If you can, please state the reported Measurement Value of ERP value of CS(=O)(=O)c1ccsc1CCC1CCN(Cc2ccc[nH]c2=O)CC1 [Example 135] .
166.7

Attribution: patent US6784192B2
